From: patent US4172145A

# Tested on: pain threshold of inflamed and not inflamed paws of rats
# methodNotes: Analgesic activity in rats (Randall-Selitto Method)
# Format: in vivo, rat (male Wister strain)
# setupConditions: Rattus norvegicus, po, 2 h, P.O. 150 mg/kg, not inflamed paw, 2 hr., read-out: Analgesic Coefficient
experimentalReadout: change in vivo at 150 mg/kg (%)
// units = %; emit number, no label

Challenge: Determine from records and report change in vivo at 150 mg/kg for Cc1ccc2oc(CC(=O)O)c(C)c2c1
Response given: 0

Challenge: Report change in vivo at 150 mg/kg, nothing else, for this molecule: CC(C)Cc1ccc(C(C)C(=O)O)cc1 (stereo not shown) [Ibuprofen, reference compound]
Response given: 5.5

Challenge: Give the reported change in vivo at 150 mg/kg for this molecule. Cc1c(CC(=O)O)oc2ccccc12
Response given: 1.7

Challenge: Tell me its change in vivo at 150 mg/kg given Cc1c(CC(=O)O)oc2ccc(C(C)(C)C)cc12 as the entry.
Response given: 0.8

Challenge: Read the entry Cc1c(CC(=O)O)oc2ccc(Cc3ccccc3)cc12 and write its reported change in vivo at 150 mg/kg.
Response given: 0.7

Challenge: Given Cc1c(CC(=O)O)oc2ccc(F)cc12 , respond with its change in vivo at 150 mg/kg.
Response given: 0

Challenge: Give a short answer stating reported change in vivo at 150 mg/kg for COc1ccc2oc(CC(=O)O)c(C)c2c1 .
Response given: 0

Challenge: Give reported change in vivo at 150 mg/kg value for Cc1c(CC(=O)O)oc2ccc(Cl)cc12
Response given: 1.3

Challenge: Kindly indicate its recorded change in vivo at 150 mg/kg. Item: Cc1c(CC(=O)O)oc2ccc(C3CCCCC3)cc12
Response given: 0

Challenge: Give the reported value of change in vivo at 150 mg/kg for this record: Cc1c(CC(=O)O)oc2ccc(-c3ccccc3)cc12
Response given: 2.4

###

Record form. Attribute: TD50 at 20 h. Fill in for each entry.
# methodNotes: in vivo
# setupConditions: rat, po
Report only the number, with the unit mg/kg understood.

Challenge: Supply reported TD50 at 20 h belonging to this compound: CC(C)Cc1ccc(C(C)C(=O)O)cc1 (stereo not drawn) [Ibuprofen, reference compound]
Response given: 46

Challenge: // Input: CCCCC1C(=O)N(c2ccccc2)N(c2ccccc2)C1=O [Phenylbutazone, reference compound] . Output its TD50 at 20 h only.
Response given: 76

Challenge: Supply reported TD50 at 20 h belonging to this compound: Cc1c(CC(=O)O)oc2ccc(Cl)cc12
Response given: 230

###

# methodNotes: in vivo
# setupConditions: mouse, oral, observed one week, Litchfield and Wilcoxon, read-out: Acute Toxicity (P.O.), LD50, Mouse
Could you please report measured LD50 at 168 h for the items listed next?
Report the figure in mg/kg without appending any unit label.

Challenge: Determine its reported LD50 at 168 h: Cc1c(CC(=O)O)oc2ccc(Cl)cc12
Response given: 800

Challenge: Return reported LD50 at 168 h. Input compound: COc1ccc2oc(CC(=O)O)c(C)c2c1
Response given: 1110

Challenge: Please supply the value of reported LD50 at 168 h for the item Cc1ccc2oc(CC(=O)O)c(C)c2c1
Response given: 1310

Challenge: Give recorded LD50 at 168 h. Cc1c(CC(=O)O)oc2ccc(F)cc12
Response given: 1750
